Taken from paper PMC9497102.

assay: pKa by UV-vis spectrophotometric titrations; format: physicochemical; settings: 30% (v/v) DMSO/H2O solution, I = 0.1 M (KCl), 25 °C, read-out: pKa (H2L)
READOUT: pKa

[[record]]
molecule = "CN(C)C(=S)NN=C1CCCc2cccnc21 (mixture of isomers) [COTI-NMe2]"
readout = "pKa"
quantitative_readout = 3.65

[[record]]
molecule = "NC(=S)N/N=C1\\CCCc2cccnc21 [COTI-NH2]"
readout = "pKa"
quantitative_readout = 4.39


A = S=C(N/N=C1\CCCc2cccnc21)N1CCN(c2ccccn2)CC1 [COTI-2]
B = CN(C(=S)N/N=C1\CCCc2cccnc21)C1CCCCC1 [COTI-NMeCy]
// max by pKa over [ A , B ] Kindly give the label for the entry you pick.
A
(A: 5.08, B: 3.47)

* * *

test: pKa by UV-vis spectrophotometric titrations; assay type: physicochemical; settings: 30% (v/v) DMSO/H2O solution, I = 0.1 M (KCl), 25 °C, read-out: pKa (H3L)
READOUT: pKa
In your answer, state the number alone without any accompanying words.

Can you share its pKa? I mean this compound: `S=C(N/N=C1\CCCc2cccnc21)N1CCN(c2ccccn2)CC1`
3.23

* * *

test: Iron(III) complex formation, UV-vis spectrophotometric titrations; assay type: physicochemical; conditions: Fe(III) hydroxido species also considered as unbound metal; cFe = 1 μM, cL = 10 μM, pH = 7.40
READOUT: pFe(III)*

[[record]]
compound = "CN(C(=S)N/N=C1\\CCCc2cccnc21)C1CCCCC1"
quantitative_readout = 9.9

[[record]]
compound = "NC(=S)N/N=C1\\CCCc2cccnc21"
quantitative_readout = 10.4

[[record]]
compound = "S=C(N/N=C1\\CCCc2cccnc21)N1CCN(c2ccccn2)CC1"
quantitative_readout = 10.6

[[record]]
compound = "CN(C)C(=S)NN=C1CCCc2cccnc21 (mixture of isomers)"
quantitative_readout = 11.1


* * *

test: Zinc(II) complex formation, UV-vis spectrophotometric titrations; type: physicochemical; settings: T = 25.0 °C, I = 0.10 M (KCl), 30% (v/v) DMSO/H2O
READOUT: logβ [ZnL2]

[[record]]
compound = "NC(=S)N/N=C1\\CCCc2cccnc21"
quantitative_readout = 25.42

[[record]]
compound = "CN(C(=S)N/N=C1\\CCCc2cccnc21)C1CCCCC1"
quantitative_readout = 26.32

[[record]]
compound = "CN(C)C(=S)NN=C1CCCc2cccnc21 (mixture of isomers)"
quantitative_readout = 25.24

[[record]]
compound = "S=C(N/N=C1\\CCCc2cccnc21)N1CCN(c2ccccn2)CC1"
quantitative_readout = 23.23


* * *

Experiment: Iron(III) complex formation, UV-vis spectrophotometric titrations
Assay type: physicochemical
Conditions: T = 25.0 °C, I = 0.10 M (KCl), 30% (v/v) DMSO/H2O
Description: The UV-vis spectra were recorded using an Agilent Cary 8454 diode array spectrophotometer in the 200 to 950 nm window, and the path length was varied between 1 and 5 cm, depending on the solubility (thus the applicable concentration). […]
READOUT: logβ [Fe(III)L]^2+

[[record]]
molecule = "S=C(N/N=C1\\CCCc2cccnc21)N1CCN(c2ccccn2)CC1"
quantitative_readout = 18.02

[[record]]
molecule = "NC(=S)N/N=C1\\CCCc2cccnc21"
quantitative_readout = 20.00

[[record]]
molecule = "CN(C(=S)N/N=C1\\CCCc2cccnc21)C1CCCCC1"
quantitative_readout = 17.06

[[record]]
molecule = "CN(C)C(=S)NN=C1CCCc2cccnc21 (mixture of isomers)"
quantitative_readout = 17.25

